Origin of values: PubChem BioAssay (NCI)

- System: NCI-H460 lung
- assay method text: NCI-60 one-dose screen, 48 h
- condition details: 10 µM unless noted
This is part of a sample that, as a whole, favours compounds with a hit. Of some 83,000 tested, about 20% had one in any assay. Active and inactive are the calls of the source. How the source made its calls: active means growth percent below 10; inactive means the rest.
Use one of these outcomes when replying: active, inactive

Record excerpt, results attached:
CS(=O)(=O)c1ccc(/C(=N/NC(N)=S)c2ccc(F)cc2)cc1 :: inactive
COc1ccc(C(=O)/C=C/Nc2cc(-c3ccccc3)nn2-c2ccccc2)cc1 :: inactive
O=c1c(Cc2ccc(F)cc2)cc(-c2ccccc2)nn1C/C(=N/O)c1ccccc1 :: inactive

Q: Short answer needed: outcome of this test for C=CCNc1nc(O)c(/C=C2\C=Nc3ncccc32)s1 ?
A: active

Q: # fetch the recorded call for COc1cc(/C=C2\C(=O)N(CCOc3cc(O)c4c(=O)cc(-c5ccccc5)oc4c3)c3ccccc32)cc(OC)c1O here
A: inactive

Q: Please indicate how the test categorized Oc1ccc(Cc2ccc(O)c3ncccc23)c2cccnc12 .
A: active

----------
- System: MDA-MB-231 breast
- assay method text: NCI-60 one-dose screen, 48 h (100 = growth as untreated, 0 = no growth, -100 = all killed)
- condition details: 10 µM unless noted
- Procedure: Cells are grown in 96 well plates and exposed to the test compound for 48 hours. Compounds are tested at a single concentration, which is 10^-5 M for most compounds. The reported endpoint is percent growth (GI% or GIPRCNT), where numbers from 0 - 100% represent growth inhibition, and numbers from -100% - 0 represent cell death. For example, a value of 40 represents 60% growth inhibition. A value of 0 means no net growth occurred over the course of the experiment. […]
About 83,000 compounds went through this panel and 20% of them were active in at least one assay; those are over-represented in the sample as a whole.
Kindly state growth for each of the entries shown.
Give bare numbers, in %.

CC(=O)[C@H]1CC[C@]2(C)[C@@H]1CC[C@@H]1[C@@]3(C)C/C(=C/c4cccnc4)C(=O)C(C)(C)[C@@H]3CC[C@]12C :: 83.9
Cn1ncc(CC(=O)O)c1-n1nnc2cc(Cl)ccc2c1=O :: 94.5
O=C(CSc1nnc(-c2ccc(Cl)c(Cl)c2)n1-c1ccccc1)Nc1ccc(C(=O)/C=C/c2ccc(Cl)cc2)cc1 :: 86.5

// each compound listed below needs its growth
1. C/C(=N\NC(=O)c1ccc(C(C)(C)C)cc1)c1ccc(O)cc1O
2. COc1ccc(C(c2cc(OC)c(OC)c(OC)c2)n2cncn2)cc1O (centres undefined)
3. CN1CCN(Cn2nc(-c3cc(Cl)cc(Cl)c3Cl)oc2=S)CC1
4. COc1ccc(C2=C/C(=C\c3ccccc3O)C(=O)N2Cc2ccccc2)cc1
5. COc1ccc(C2=NN3C(C2)c2cc(Br)ccc2OC3c2ccncc2)cc1 (centres undefined)
6. COc1ccc(-n2c(=O)n(-c3ccc(-c4nc5ccc(F)cc5s4)cc3)c(=O)c3cccnc32)cc1

A:
[37.4, 43.1, 94.4, 93.7, 85, 97.1]

Your task in this section: give growth for each listed record.
1. N#Cc1c(-c2ccc(F)cc2)cc(-c2cccc(Cl)c2)[nH]c1=O
2. O=C(OCC(O)C(=O)NC12CC3CC(CC(C3)C1)C2)c1cccc(Br)c1 (centres undefined)
3. O=C1c2c(c3c4cc(F)ccc4oc3c3[nH]c4ccccc4c23)C(=O)N1O
4. CC(CN)[C@@H]1CC[C@]2(CO)CC[C@]3(C)[C@H](CC[C@@H]4[C@@]5(C)CCC(NCCO)C(C)(C)[C@@H]5CC[C@]43C)[C@@H]12 (some centres undefined)
5. C#C[C@]1(O)CC[C@H]2[C@@H]3CC=C4c5sc(-c6cccc(C)c6)nc5CC[C@]4(C)[C@H]3CC[C@@]21C
6. O=C(Nc1ncc(Cc2ccccc2)s1)c1cc(-c2ccccc2)nc2ccccc12
7. NC(=N\N=C/c1ccc(Cl)cc1Cl)/C(N)=N\N=C/c1ccc(Cl)cc1Cl

A:
1. 60.7
2. 92
3. 57.6
4. 13.6
5. 59.8
6. 104
7. 71.1

For each entry beneath this line, provide reported growth.
1. Nc1ccc(Cl)c2c(=O)c3ccccc3[nH]c12
2. CCCCCN(CCCCC)CC(O)c1c(Cl)ccc2ccccc12 (centres undefined)

A:
[91.5, 39.7]

Q: Which growth value is on record for O=C(/C=C/c1ccc(Cl)cc1)c1ccc(Nc2ccnc3cc(Cl)ccc23)cc1 ?
A: 48.4
